// provenance: ChEMBL document CHEMBL4814011

organism: Cavia porcellus; assay: Activity at muscarinic M3 and adrenergic beta2 in guinea pig trachea assessed as time taken for compound action by MABA assay; assay type: tissue-based
Reported values of TIME for individual entries

O=C(N[C@@H](c1ccccc1)c1ccc(-c2cccc(OCc3ccc(C(=O)N(CCCNC[C@H](O)c4ccc(O)c5[nH]c(=O)ccc45)Cc4ccccc4)cc3)c2)cc1)O[C@H]1CN2CCC1CC2 | > 3 h
O=C(NC(c1ccccc1)c1ccc(OCCCCCCCCCNC[C@H](O)c2ccc(O)c3[nH]c(=O)ccc23)cc1)O[C@H]1CN2CCC1CC2 (stereo partly specified) | > 4.5 h
O=C(N[C@@H](c1ccccc1)c1cccc(OCc2ccc(CCNC[C@H](O)c3ccc(O)c4[nH]c(=O)ccc34)cc2)c1)O[C@H]1CN2CCC1CC2 | > 4.5 h
O=C(N[C@@H](c1ccccc1)c1ccc(-c2cccc(OCc3ccc(C(=O)NCCCNC[C@H](O)c4ccc(O)c5[nH]c(=O)ccc45)cc3)c2)cc1)O[C@H]1CN2CCC1CC2 | > 4.5 h
O=C(NC(c1ccccc1)c1cccc(OCCCCCCCCCNC[C@H](O)c2ccc(O)c3[nH]c(=O)ccc23)c1)O[C@H]1CN2CCC1CC2 (stereo partly specified) | > 4.5 h

Here is another compound to look at.
Input: State, in one line, measured TIME of CCN(CCCNC[C@H](O)c1ccc(O)c2[nH]c(=O)ccc12)C(=O)c1ccc(COc2cccc(-c3ccc([C@@H](NC(=O)O[C@H]4CN5CCC4CC5)c4ccccc4)cc3)c2)cc1
Output: > 3.75 h
